# Tested on: HepG2
# test-description: Cytotoxicity against human HepG2 cells after 48 hrs by Alamar Blue assay
# Type: cell-based
# condition-parameters: hepg2, 48 h
I'd appreciate it if you could supply CC50 values for the items below.
Answers are plain numbers, in µM.

Query COc1ncc(-c2cnc3[nH]c(-c4cc(NC(=O)N5CCCC5)ccc4F)nc3c2)cn1 yields CC50 of 9.8

Summary for this molecule, COc1cccc(-c2cnc3[nH]c(-c4cc(NC(=O)N5CCCC5)ccc4F)nc3c2)c1 : CC50 is 35

Entry CCN(CC)CCCC(C)Nc1c2ccc(Cl)cc2nc2ccc(OC)cc12 (centres undefined) , CC50 reported as 9.78

---
// CC50 value for Nc1cccc(-c2cnc3[nH]c(-c4cc(NC(=O)N5CCCC5)ccc4F)nc3c2)c1 : 40

---

# System: Trypanosoma brucei brucei
# test-description: Antiparasitic activity against Trypanosoma brucei brucei BF427 assessed as growth inhibition by Alamar Blue assay
# Type: functional, organism-based
readout-label: pEC50
One number for each entry, as −log10 of the molar value.

Use the examples below as a reference point.
pEC50 for O=C(Nc1ccc(F)c(-c2nc3cc(-c4cncc(N5CCCC5)c4)cnc3[nH]2)c1)N1CCCC1 is 7.70

Lab book: pEC50 of O=C(Nc1ccc(F)c(-c2nc3cc(-c4cncnc4)cnc3[nH]2)c1)N1CCCC1 noted as 7.52

# pEC50 of O=C(Nc1ccc(F)c(-c2nc3cc(-c4ccoc4)cnc3[nH]2)c1)N1CCCC1 = 8.40

So, O=C(Nc1ccccc1)Nc1ccc(Cl)c(-c2nc3ncccc3o2)c1 ? Its pEC50 was 4.92

// each listed molecule needs a value for pEC50
1. O=C(Nc1ccc(F)c(-c2nc3cc(-c4cncc(Cl)c4)cnc3[nH]2)c1)N1CCCC1
2. CN(C)C(=O)Nc1ccc(Cl)c(-c2nc3ncccc3o2)c1
3. Fc1ccc(NC(=S)c2ccco2)cc1-c1nc2ncccc2o1

1. 8.30
2. 6.40
3. 6.39

---

# Test system: Trypanosoma brucei brucei
# test-description: Antiparasitic activity against Trypanosoma brucei brucei BF427 assessed as growth inhibition by Alamar Blue assay
# Format: functional, organism-based
readout-label: EC50 (nM)
Numbers only, in nM.

The examples below pair each entry with its known result.
Test item O=C(Nc1ccc(F)c(-c2nc3cc(Cl)cnc3[nH]2)c1)N1CCCC1 ; Trypanosoma brucei brucei; reported EC50 was 50

Short answer on Trypanosoma brucei brucei for Cc1cncc(-c2cnc3[nH]c(-c4cc(NC(=O)N5CCCC5)ccc4F)nc3c2)c1 , EC50: 10

Measured EC50 (Trypanosoma brucei brucei), entry O=C(Nc1ccc(F)c(-c2nc3cc(-c4cccs4)cnc3[nH]2)c1)N1CCCC1 : 4

Hi team, please reply with EC50 for each item in this list.
1. N#Cc1ccc(NC(=O)c2ccco2)cc1-c1nc2ncccc2o1
2. COc1ncc(-c2cnc3[nH]c(-c4cc(NC(=O)N5CCCC5)ccc4F)nc3c2)cn1
3. O=C(Nc1ccc(F)c(-c2nc3ncccc3o2)c1)c1cccnc1
4. CS(=O)(=O)Nc1ccc(Cl)c(-c2nc3ncccc3o2)c1
5. O=C(Nc1ccc(F)c(-c2nc3cc(F)cnc3[nH]2)c1)c1ccco1
6. Fc1ccc(N(Cc2ccccc2)Cc2ccccc2)cc1-c1nc2ncccc2o1

[400, 60, 7000, 6100, 200, 1100]

Recorded values, source ChEMBL document CHEMBL3112469.
